Experiment Notes: clinical
Stated Conditions: human, in vivo, 135 mg
Parameter: AUC(0-inf) (ng·h/mL)
Kindly provide the numeric value in ng·h/mL only, without the unit symbol.

Enquiry: // Input: C[C@@]1(O)CC[C@@]2(C)[C@@H](CC[C@@H]3[C@@H]2CC[C@]2(C)[C@@H](C(=O)Cn4cc(C#N)cn4)CC[C@@H]32)C1 [CV-10155] . Output its AUC(0-inf) only.
Return: 3660

---

Experiment Notes: Pharmacokinetics of CV-10155 in preclinical rodent studies
Stated Conditions: both, rodent, in vivo, po, 10 mg/kg
Parameter: Tmax

Enquiry: // Input: C[C@@]1(O)CC[C@@]2(C)[C@@H](CC[C@@H]3[C@@H]2CC[C@]2(C)[C@@H](C(=O)Cn4cc(C#N)cn4)CC[C@@H]32)C1 [CV-10155] . Output its Tmax only.
Return: 1.25 to 2.25 h
